experiment: chemical genetic growth profiling, strain panel (AID 1159580);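 also: tested at 20 µM; growth read once vehicle control cultures reached saturation at 30 °C; 1 = growth at the plate median or of vehicle wells; lower values mean less growth of the strain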; conditions: S. cerevisiae deletion strains, growth OD, locus YPL256C, strain CLN2
About 2,000 (36%) of roughly 5,500 compounds were called active. Inconclusive results (about 18%) are left out. Rule as the data show it: active = normalized growth mostly below about 0.91 (no sharp cut-off); inconclusive = no clear call, values can overlap the other calls; inactive = mostly above about 0.92. This is one part of the list.
# output must be one of true (1) for active, false (0) for inactive

compound | class-assignment
CC(C)=CCCC1(C)C=Cc2c(O)c3c(c(CC=C(C)C)c2O1)OC12C(=CC4CC1C(C)(C)OC2(C/C=C(\C)C(N)=O)C4=O)C3=O (centres undefined) | false (0)
O=C(NCC(c1ccccc1)c1c[nH]c2ccccc12)c1ccc(C(F)(F)F)cc1 (centres undefined) | false (0)
COc1cccc2c1C(=O)c1c(O)c3c(c(O)c1C2=O)C[C@@](O)(C(=O)CO)C[C@@H]3OC1C[C@H](N)[C@H](O)[C@H](C)O1 (some centres undefined) | true (1)

Lookup: Query: recorded result category for NC(Cc1c[nH]c2ccccc12)C(=O)O (centres undefined) in this test
Found: false (0)
